Data provenance is paper PMC10397247.

- target.or.system: T1, 4H3817-bA
- T1 chain: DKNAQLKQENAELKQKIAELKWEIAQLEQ
- test.description: two-hybrid library CCNG1;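 also: natural log of median RNA to DNA barcode read ratio; higher means stronger binding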
Rule: interaction score below -0.08 gives true (1), anything at or above gives false (0).

Known results for binders:
• DKNAQLEQKIAELKQENAELEWKIAQLKQ [4H3414-bA] = false (0)
• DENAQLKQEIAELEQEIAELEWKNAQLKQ [4H1544-bA] = false (0)

Ask: Is -0.08 strictly greater than the binder's reported interaction score? binder: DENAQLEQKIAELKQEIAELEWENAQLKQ [4H1348-bA]
Reply: true (1)

Ask: Is -0.08 strictly greater than the binder's reported interaction score? binder: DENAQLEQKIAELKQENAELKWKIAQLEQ [4H1373-bA]
Reply: true (1)

Ask: Is -0.08 strictly greater than the binder's reported interaction score? binder: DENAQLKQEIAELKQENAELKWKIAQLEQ [4H1629-bA]
Reply: true (1)

Ask: Is -0.08 strictly greater than the binder's reported interaction score? binder: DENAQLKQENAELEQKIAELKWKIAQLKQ [4H1710-bA]
Reply: false (0)
